# TARGET ENTITY: T1, human CCR8 (human, UniProt P51685 1-355)
# T1 construct: Full-length human CCR8 stably expressed on CHO or HEK293 cells; also endogenous on HuT78 cells in one ADCC assay; also called hCCR8; CHO-hCCR8
# T1 sequence (P51685 whole entry): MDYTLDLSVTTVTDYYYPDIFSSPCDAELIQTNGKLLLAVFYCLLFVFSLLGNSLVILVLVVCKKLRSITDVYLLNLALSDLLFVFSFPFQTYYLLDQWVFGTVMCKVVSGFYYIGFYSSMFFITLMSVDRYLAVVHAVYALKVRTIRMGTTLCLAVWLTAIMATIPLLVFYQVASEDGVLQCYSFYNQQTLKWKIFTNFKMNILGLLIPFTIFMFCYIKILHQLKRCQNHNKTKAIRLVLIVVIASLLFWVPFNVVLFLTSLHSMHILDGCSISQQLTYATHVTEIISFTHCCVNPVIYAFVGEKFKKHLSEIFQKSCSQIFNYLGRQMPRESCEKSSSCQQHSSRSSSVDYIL
# METHOD SUMMARY: flow cytometry, chimeric IgG on CHO-hCCR8 cells
ASSAY READOUT: EC50 (pM)
One number for each entry, in pM.

| BINDER | ASSAY READOUT | VALUE MEASURED |
| --- | --- | --- |
| 102H5 anti-CCR8 chimeric antibody (antibody, V domains shown) VH: QVQLVESNGRLVQPKGSLKLSCAASGFTFNAYAMNWVRQAPGKGLEWVARIRSKSNNYATYYADSVKDRFTISRDDSQNMLYLQMNNLKTEDTAMYFCVRQKFGARGYYALDFWGQGATVTVSS VL: DIVLTQSPASLAVSLGQRATISCRASESVEYYGTSLMQWYQQKPGQPPKLLIYAASNVESGVPARFSGSGSGTDFSLNIHPVEEDDIAMYFCQQSRKVPYTFGGGTKLEIK | EC50 | 460 |

Batch request: EC50 for each of the following binders.
1. 87D8 anti-CCR8 chimeric antibody (antibody, V domains shown) VH: EVQLVESGGGLVQPKGSLRLSCAASGFTFNTYAMNWVRQAPGKGLEWIARIRSKSNNYATYYADSVKDRFTISRDDSQSMLYLQMNNLKTEDTAMYYCVRGKEAGAYYAMDYWGQGTSVTVSS VL: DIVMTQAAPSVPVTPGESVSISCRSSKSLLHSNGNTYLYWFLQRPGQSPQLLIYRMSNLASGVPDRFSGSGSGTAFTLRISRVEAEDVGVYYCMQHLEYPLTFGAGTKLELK
2. 29A8 anti-CCR8 chimeric antibody (antibody, V domains shown) VH: EVQLVESGGGLVQPKGSLKLSCAASGFTFNAFAMNWVRQAPGKGLEWVARIRSKSNNYATYYADSVIDRFTISRDDSQSMLYLQMNNLKTEDTAMYYCVRGKEAGAYYAMDYWGQGTSVTVSS VL: DIVMTQAAPSVPVTPGESVSISCRSSKSLLHSNGNTYLYWFLQRPGQSPQLLIYRMSNLASGVPDRFSGSGSGTAFTLRISKVEAEDVGVYYCMQHLEYPFTFGGGTKLEIK

[out]
710
3240
